B1: Elongin-A2 (Homo sapiens), Q8IYF1 (parent)
chain: MAAGSTTLHAVEKLQVRLATKTEPKKLEKYLQKLSALPMTADILAETGIRKTVKRLRKHQHVGDFARDLAARWKKLVLVDRNTRPGPQDPEESASRQRFGEALQDQEKAWGFPENATAPRSPSHSPEHRRTARRTPPGQQRPHPRSHSREPRAERKCPRIAPADSGRYRASPTRTAPLRMPEGPEPAAPGKQPGRGHTHAAQGGPLLCPGCQGQPQGKAVVSHSKGHKSSRQEKRPLCAQGDWHSPTLIREKSCGACLREETPRMPSWASARDRQPSDFKTDKEGGQAGSGQRVPALEEAPDSHQKRPQHSHSNKKRPSLDGRDPGNGTHGLSPEEKEQLSNDRETQEGKPPTAHLDRTSVSSLSEVEEVDMAEEFEQPTLSCEKYLTYDQLRKQKKKTGKSATTALGDKQRKANESKGTRESWDSAKKLPPVQESQSERLQAAGADSAGPKTVPSHVFSELWDLSEAWMQANYDPLSDSDSMTSQAKPEALSSPKFREEAAFPGRRVNAKMPVYSGSRPACQLQVPTLRQQCAQVLRNNPDALSDVGEVPYWVLEPVLEGWRPDQLYRRKKDNHALVRETDELRRNHCFQDFKEEKPQENKTWREQYLRLPDAPEQRLRVMTTNIRSARGNNPNGREAKMICFKSVAKTPYDTSRRQEKSAGDADPENGEIKPASKPAGSSHTPSSQSSSGGGRDSSSSILRWLPEKRANPCLSSSNEHAAPAAKTRKQAAKKVAPLMAKAIRDYKRRFSRR
partner: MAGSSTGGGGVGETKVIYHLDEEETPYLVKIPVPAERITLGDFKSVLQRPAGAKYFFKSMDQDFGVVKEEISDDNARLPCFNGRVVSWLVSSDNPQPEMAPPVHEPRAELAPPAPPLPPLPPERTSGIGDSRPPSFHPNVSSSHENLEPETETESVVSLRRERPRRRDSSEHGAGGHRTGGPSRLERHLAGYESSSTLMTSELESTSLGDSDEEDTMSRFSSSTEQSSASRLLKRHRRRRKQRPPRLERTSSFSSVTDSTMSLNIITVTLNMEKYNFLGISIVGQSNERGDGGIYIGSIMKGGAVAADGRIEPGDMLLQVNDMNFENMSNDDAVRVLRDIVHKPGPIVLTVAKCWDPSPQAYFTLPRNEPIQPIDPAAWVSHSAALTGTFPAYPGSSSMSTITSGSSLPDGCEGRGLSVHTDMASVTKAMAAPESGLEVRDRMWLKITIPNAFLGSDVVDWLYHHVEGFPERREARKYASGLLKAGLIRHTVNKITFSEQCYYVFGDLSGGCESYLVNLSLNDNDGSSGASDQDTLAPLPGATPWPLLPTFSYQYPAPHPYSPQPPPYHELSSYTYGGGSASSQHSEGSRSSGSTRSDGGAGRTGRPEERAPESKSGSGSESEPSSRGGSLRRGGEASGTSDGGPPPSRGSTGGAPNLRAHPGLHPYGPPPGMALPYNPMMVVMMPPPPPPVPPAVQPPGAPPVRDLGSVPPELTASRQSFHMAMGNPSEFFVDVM

Variants of: B1
Conditions: with dvl2_human DVL2, O14641
measurement kind: effect of a mutation on the interaction

Take a look at these entries with their results.
> print(dat)
   variant.notation     assay.value
1             A403S  with no effect
2               T6S  with no effect
3             R179P  with no effect
4             A446T  with no effect
5             C254F  with no effect
6             R498Q  with no effect
7             D302H  with no effect

Lab note: next variant to report on.
So what's the measured effect of a mutation on the interaction for this one? G505R with no effect
